# credit: the SangsterLogP compilation

Catalogue of logP readings, one per entry.
Please state the value as a number alone, without comment.

Below are worked cases with known answers.
O=C(NCc1ccccc1O)c1ccccc1 = 2.55
CCCCCCNC(=S)NC = 2.31
O=C(OCCOCCOCCO)c1ccccc1 = 1.09

Now look at this entry.
Ask: Endpoint output: logP of COCCOC(=O)c1ccccc1 . Value?
Reply: 1.78
